// provenance: PubChem BioAssay AID1745844

- System: rodent lifetime carcinogenesis bioassay, tumor incidence TD50
- Experimental Protocol: carcinogenic potency in animals, long-term in vivo studies, CPDB compilation (AID 1745844)
- Run Conditions: mouse; strain B6C3F1; males; in feed; site: liver; lesion: hepatocellular adenoma + hepatocellular carcinoma + neoplastic nodule; dosed 103 weeks; study length 104 weeks
Records here are stratified by TD50; strata: LOW: < 800 mg/kg/day; MID: ≥ 800 mg/kg/day and < 5000 mg/kg/day; HIGH: ≥ 5000 mg/kg/day

Examples from the recorded data:
molecule=Nc1ccccc1-c1ccccc1 group_label=MID
molecule=Cc1ccc(N=Nc2c(O)ccc3ccccc23)c([N+](=O)[O-])c1 group_label=HIGH

Task item: // return the class label for CNC[C@H](O)c1cccc(O)c1
Reply: MID
